Test system: Fusarium graminearum
Format: in vivo
Run parameters: in vivo
# maps each entry to its efficacy
Reply numerically in %, unit not repeated.

A selection of reference data follows.
CCC(=O)Nc1cc(-c2c(-c3ccc(F)cc3)nn3c2OCCC3)ccn1: 100
CCC(=O)Nc1cc(-c2c(-c3ccc(F)cc3F)nn3c2OCCC3)ccn1: 100
CC(C)(C)CC(=O)Nc1cc(-c2c(-c3ccc(F)cc3)nn3c2OCCC3)ccn1: 86
O=C(CC1CC1)Nc1cc(-c2c(-c3ccccc3)nn3c2OCCC3)ccn1: 71

Moving on to the next compound.
### Prompt Request body: readout efficacy, system Fusarium graminearum, query CCC(C)C(=O)Nc1cc(-c2c(-c3ccc(F)cc3)nn3c2OCCC3)ccn1 (stereo not drawn) . Return the value.
### Response 90

###

Protocol: Determination of log P values by HPLC on a reverse phase column (C18), EEC-Directive 79/831 Annex V.A8 (Methods A, B, C)
Assay type: physicochemical
Run parameters: reverse phase C18 HPLC column, pH 2.3, intermediates of formula [IV] and [XXXVII]; HPLC, reverse phase C18; read-out: LogP (pH 2.3)
Recorded metric: chromatographic logP
Give the value as a plain number.

Cc1coc2c(Br)c(-c3ccc(F)cc3)nn12 [[IV-a-1]]: 3.56

### Prompt What measured chromatographic logP goes with C[C@@H]1C[C@H](C)n2nc(-c3ccc(F)cc3)c(Br)c2O1 (racemic) [[IV-9b]] ?
### Response 3.68

### Prompt Likewise for Fc1ccc(-c2nn3cccnc3c2Br)cc1 [[XXXVII-2]] ?
### Response 2.8

### Prompt Next record, please: CCc1coc2c(Br)c(-c3ccc(F)cc3)nn12 [[IV-a-2]]
### Response 4.18

### Prompt Please answer likewise for Fc1ccc(-c2nn3c(c2Br)OCCC3)c(F)c1 [[IV-3]]
### Response 2.7

###

List of efficacy values.
Tested on: Fusarium graminearum
Format: in vivo
Run parameters: in vivo
Enter your answer as a number in %; do not include the unit.

C[C@H](O)C(=O)Nc1cc(-c2c(-c3ccccc3)nn3c2OCCC3)ccn1 [Example 12]: 86
CC(=O)Nc1cc(-c2c(-c3cccs3)nn3c2OC[Si](C)(C)C3)ccn1 [Example 85]: 71
O=C(CC(F)(F)F)Nc1cc(-c2c(-c3ccc(F)cc3F)nn3c2OCCC3)ccn1 [Example 46]: 86

### Prompt Entry O=C(Nc1cc(-c2c(-c3ccc(F)cc3)nn3c2OCCC3)ccn1)C1CCOCC1 [Example 28] , system Fusarium graminearum: what efficacy was measured?
### Response 86

### Prompt Another: CCC(=O)N(C(=O)CC)c1cc(-c2c(-c3ccc(F)cc3)nn3c2OCCC3)ccn1 [Example 53]
### Response 100

### Prompt Proceed to CCC(=O)N(C(=O)C1CC1)c1cc(-c2c(-c3ccc(F)cc3)nn3c2OCCC3)ccn1 [Example 54]
### Response 100

### Prompt Likewise for CC(C)C(=O)Nc1cc(-c2c(-c3ccccc3)nn3c2OCCC3)ccn1 [Example 8] ?
### Response 100

### Prompt Also need CCOC(=O)Nc1cc(-c2c(-c3ccccc3)nn3c2OCCC3)ccn1 [Example 9] , thanks.
### Response 100

### Prompt Another molecule to look at: CC(C)C(=O)Nc1cc(-c2c(-c3ccc(F)cc3)nn3c2OC[Si](C)(C)C3)ccn1 [Example 76]
### Response 86

### Prompt Request: CCC(=O)Nc1cc(-c2c(-c3ccc(F)cc3)nn3c2OC[Si](C)(C)C3)ccn1 [Example 77]
### Response 100

### Prompt Next: CCC(=O)N(C(C)=O)c1cc(-c2c(-c3ccc(F)cc3)nn3c2OCCC3)ccn1 [Example 52]
### Response 100

### Prompt How about this molecule: O=C(Nc1cc(-c2c(-c3ccccc3)nn3c2OCCC3)ccn1)C1CCOCC1 [Example 14]
### Response 86

### Prompt Try the molecule CCC(=O)Nc1cc(-c2c(-c3ccccc3)nn3c2OCCC3)ccn1 [Example 6]
### Response 100

### Prompt Again, but for O=C(Nc1cc(-c2c(-c3ccc(F)cc3F)nn3c2OCCC3)ccn1)C1CC1 [Example 36]
### Response 100

### Prompt Then what about the molecule O=C(C1CC1)N(C(=O)C1CC1)c1cc(-c2c(-c3ccc(F)cc3)nn3cccnc23)ccn1 [Example 84] ?
### Response 83

### Prompt Further, for CCC(C)C(=O)Nc1cc(-c2c(-c3ccccc3)nn3c2OCCC3)ccn1 (centres unmarked) [Example 10] ?
### Response 90

### Prompt Similarly, O=C(CC(F)(F)F)Nc1cc(-c2c(-c3ccc(F)cc3)nn3c2OCCC3)ccn1 [Example 31] ?
### Response 86
